biological target: Protein kinase C alpha type (Homo sapiens)
In plain terms, low IC50, meaning strictly below 2000 nM, gives Satisfied, and everything else gives Not satisfied.

{"mol-smiles": "Clc1cccc(Nc2nccc(-c3cccnc3)n2)c1", "cat": "Satisfied"}
{"mol-smiles": "N#Cc1ccc(C(=O)Nc2cccc(Nc3nccc(-c4cccnc4)n3)c2)cc1", "cat": "Satisfied"}
{"mol-smiles": "c1cc(Nc2nccc(-c3cccnc3)n2)cc(OCCn2ccnc2)c1", "cat": "Satisfied"}
{"mol-smiles": "O=C(Nc1cccc(Nc2nccc(-c3cccnc3)n2)c1)c1cccnc1", "cat": "Satisfied"}
{"mol-smiles": "COc1ccccc1C(=O)Nc1ccc(C)c(Nc2nccc(-c3cccnc3)n2)c1", "cat": "Not satisfied"}
{"mol-smiles": "O=[N+]([O-])c1cccc(Nc2nccc(-c3cccnc3)n2)c1", "cat": "Satisfied"}
{"mol-smiles": "O=C(Nc1cccc(Nc2nccc(-c3cccnc3)n2)c1)c1ccncc1", "cat": "Satisfied"}
{"mol-smiles": "COc1ccccc1C(=O)Nc1cccc(Nc2nccc(-c3cccnc3)n2)c1", "cat": "Satisfied"}
{"mol-smiles": "O=[N+]([O-])c1cccc(Nc2nccc(-c3ccncc3)n2)c1", "cat": "Not satisfied"}
{"mol-smiles": "FC(F)C(F)(F)Oc1cccc(Nc2nccc(-c3c[nH]c4ccccc34)n2)c1", "cat": "Satisfied"}
